Answer each item with its documented growth.
System: HCT-116 colon
EXPERIMENT_NOTES: NCI-60 one-dose screen, 48 h (100 = growth as untreated, 0 = no growth, -100 = all killed)
CONDITION: 10 µM unless noted
This is part of a sample that, as a whole, favours compounds with a hit. Of some 83,000 tested, about 20% had one in any assay. Activity calls are given as the source filed them. How the source made its calls: active means growth percent below 10; inactive means the rest.

Query: Can you share its growth? I mean this molecule: O=C1NC(=O)C(=Cc2ccc(OCCCCC3CCCCC3)c(Cl)c2)C(=O)N1
Result: 91.3% (inactive)

Query: Would you mind telling me what growth value was observed for CCOP(=O)(Cc1ccc(C#N)cc1)OCC ?
Result: 84.5% (inactive)

Query: What value of measured growth is listed for CC1=C(CCCOC(=O)[C@H](N)CC(C)C)C2=C(C)C3(CC3)[C@@](C)(O)C(=O)C2=C1 ?
Result: 9.3% (active)

Query: # get_value(readout='growth', item= O=C(c1cccc(O)c1O)c1cn(Cc2ccc(F)cc2)c2cccc(O)c12 )
Result: 30.7% (inactive)

Query: # input molecule: C/C(=C\c1ccn(-c2ccccc2N)n1)[C@@H]1C[C@@H]2O[C@]2(C)CCC[C@H](C)[C@H](O)[C@@H](C)C(=O)C(C)(C)[C@@H](O)CC(=O)O1 ; wanted: its growth
Result: 12.1% (inactive)

----------
Test system: HS 578T breast
EXPERIMENT_NOTES: NCI-60 one-dose screen, 48 h (100 = growth as untreated, 0 = no growth, -100 = all killed)
CONDITION: 10 µM unless noted
The panel holds about 83,000 compounds, 20% with a hit somewhere; the sample as a whole holds those more often.
Values of growth strictly less than 80% map to criterion met, and values of at least 80% map to criterion not met.

Query: Please let me know if O=C(O)C(Cl)(Cl)C(F)(F)F shows growth below 80%.
Result: criterion not met

Query: State whether 80% exceeds growth recorded for CC(=O)OC1CCC2(C)C(CCC3C2CC(=O)C2(C)C3CC(Sc3ccc(N(CCCl)CCCl)cc3)C2C(C)=O)C1 (stereo not given) .
Result: criterion not met

Query: Does the reported growth of the following compound sit strictly below 80%? CNC(=O)Oc1ccc(C(C)(C)C)cc1OC(=O)NC
Result: criterion not met

Query: State whether 80% exceeds growth recorded for CC(C)=CCc1c(O)c(C(=O)CC(C)C)c(O)c2c(-c3ccccc3)cc(=O)oc12 .
Result: criterion met

Query: Identify whether the compound CC12CCC(O)CC1=CCC1C2CCC2(C)C(O)CCC12 (stereo not given) records growth below 80%.
Result: criterion not met

Query: Given the entry COc1ccc2c(c1)c(C1(O)CC(CSC#N)OC1=O)cn2C(=O)c1ccc(Cl)cc1 (stereo not given) , would its reported growth be below 80%?
Result: criterion not met

Query: In plain terms, does N#CC1(C#N)C(c2ccc(N(CCCl)CCCl)cc2)OC23CCCCC2C1(C#N)C(=N)O3 (stereo not given) come in under 80% for growth?
Result: criterion not met

Query: Is it true that growth reported for COc1cc(C=Nc2cccc(Br)c2)ccc1N(CCCl)CCCl is less than 80%?
Result: criterion not met

Query: Does CC(C)COC(C[N+](=O)[O-])C(Cl)(Cl)Cl (stereo not given) have growth strictly under 80%?
Result: criterion not met

Query: I wonder whether O=C1C2CC=CCC2C(=O)N1SC(Cl)(Cl)Cl (stereo not given) has growth below 80%. Can you tell?
Result: criterion not met

Query: growth strictly < 80% for this compound? C[C@]12CCc3nc(Nc4ccccc4F)sc3C1=CC[C@@H]1[C@@H]2CC[C@]2(C)C(=O)CC[C@@H]12
Result: criterion met

Query: Dear reviewer, please state whether O=C(c1ccccc1O)c1[nH]c(Cl)c(Cl)c1-n1c(C(=O)c2ccccc2O)cc(Cl)c1Cl has growth strictly beneath 80%.
Result: criterion met

Query: Lab log: compare recorded growth with 80%; is it strictly lower for CC(=O)O[C@H]1C(=O)[C@@]2(C)[C@H]([C@H](OC(=O)c3ccccc3)[C@]3(O)C[C@H](OC(=O)[C@H](OC(=O)OCC4COC(C)(C)O4)[C@@H](NC(=O)c4ccccc4)c4ccccc4)C(C)=C1C3(C)C)[C@]1(OC(C)=O)CO[C@@H]1C[C@@H]2O (stereo not given in full) ?
Result: criterion met

Query: Please let me know if CCC(O)(CN)c1ccccc1 (stereo not given) shows growth below 80%.
Result: criterion not met

Query: Just wondering, is growth of Nc1nc([Se])c2ncn(C3OC(CO)C(O)C3O)c2n1 (stereo not given) below 80%?
Result: criterion met

Query: Dear reviewer, please state whether Clc1cccc(NCOOC2(OOCNc3cccc(Cl)c3)CCCCCC2)c1 has growth strictly beneath 80%.
Result: criterion not met

Query: Below 80% on growth? Entry CN1CC(CNC(=O)OCc2ccccc2)CC2c3cccc4c3c(cn4C)CC21 (stereo not given)
Result: criterion met

Query: State whether 80% exceeds growth recorded for Oc1ccc2c3c1OC1[C@@H](O)CC[C@@]4(O)[C@@H](C2)N(CC2CCC2)CC[C@]314 (stereo not given in full) .
Result: criterion not met

Query: Is the reported growth for CCOC(=O)N1CC1 strictly below 80%?
Result: criterion not met

----------
Tested on: MCF7 breast
EXPERIMENT_NOTES: NCI-60 one-dose screen, 48 h (100 = growth as untreated, 0 = no growth, -100 = all killed)
CONDITION: 10 µM unless noted
Procedure: Growth inhibition of the MCF7 human tumor cell line is measured as a screen for anti-cancer activity. Cells are grown in 96 well plates and exposed to the test compound for 48 hours. Compounds are tested at a single concentration, which is 10^-5 M for most compounds. The reported endpoint is percent growth (GI% or GIPRCNT), where numbers from 0 - 100% represent growth inhibition, and numbers from -100% - 0 represent cell death. For example, a value of 40 represents 60% growth inhibition. […]
This is part of a sample that, as a whole, favours compounds with a hit. Of some 83,000 tested, about 20% had one in any assay.
Provide the reported growth of each item.
Supply the numeric figure in %, leaving out any unit text.

Query: Which measured growth value corresponds to CC[C@H](C)[C@H](NC(=O)[C@H]1CCCCN1C)C(=O)N(C)[C@H](C[C@@H](OC(C)=O)c1nc(C(=O)N[C@@H](Cc2ccccc2)C[C@H](C)C(=O)OC)cs1)C(C)C ?
Result: 12.9

Query: What value of growth has been recorded for this entry: C[C@@H]1C[C@@]2(C)[C@@H](CC[C@@H]3[C@@H]2CC[C@]2(C)C(=O)CC[C@@H]32)CC1=O
Result: 99.9

Query: Need growth, item O=NN1CCCc2cccc(O)c21
Result: 27.2

Query: // lookup growth for Fc1ccc2c(c1)c(-c1nc(-c3c[nH]c4ncccc34)cs1)cn2CCCCN1CCCCC1
Result: -75.3

----------
Test system: A549/ATCC NSCLC
EXPERIMENT_NOTES: NCI-60 one-dose screen, 48 h (100 = growth as untreated, 0 = no growth, -100 = all killed)
CONDITION: 10 µM unless noted
The panel holds about 83,000 compounds, 20% with a hit somewhere; the sample as a whole holds those more often.
Assignment: determine reported growth for the given compounds.
Numbers only; they are read as %.

Query: growth; subject: Cn1cc(C=O)c2nccnc21
Result: 96.8

Query: Give its growth value. Item: CC[C@H](C)[C@H](NC(=O)NC(C)(C)C)C(=O)N(C)[C@H](C[C@@H](OC(C)=O)c1nc(C(=O)N[C@@H](Cc2ccccc2)C[C@H](C)C(=O)OC)cs1)C(C)C
Result: 19.1

Query: Looking for the measured growth of CC1=C(CCCNS(C)(=O)=O)C2=C(C)C3(CC3)[C@@](C)(O)C(=O)C2=C1 , can you help?
Result: 2.7

Query: What does the data say about its growth? Entry: CC[C@H](C)[C@H](NC(=O)[C@H]1CCCCN1C)C(=O)N(C)[C@H](CC(=O)c1nc(C(=O)N[C@@H](Cc2ccccc2)C[C@H](C)C(=O)O)cs1)C(C)C
Result: 94.8

Query: Need growth, item Cc1cc(C)cc(Nc2nc3c(s2)CC[C@@]2(C)C3=CC[C@@H]3[C@@H]2CC[C@]2(C)C(=O)CC[C@@H]32)c1
Result: 72.9

Query: Return reported growth; argument: N/C(=N/N=C/c1ccncc1)N[N+](=O)[O-]
Result: 98.3

Query: Given the compound CC(=O)[C@H]1CC[C@H]2[C@@H]3CC[C@H]4C[C@H](N)CC[C@]4(C)[C@H]3CC[C@]12C , what is its reported growth?
Result: 66.4

Query: Need growth of C=COC(=O)CCN1CC1 , thanks.
Result: 102

Query: Quick one: growth of [Cl][Hg][c]1cc[c]([Hg][Cl])o1 ?
Result: 88.4

----------
Kindly state growth for each of the entries shown.
System: OVCAR-5 ovarian
EXPERIMENT_NOTES: NCI-60 one-dose screen, 48 h (100 = growth as untreated, 0 = no growth, -100 = all killed)
CONDITION: 10 µM unless noted
About 83,000 compounds went through this panel and 20% of them were active in at least one assay; those are over-represented in the sample as a whole.
Express the result in % but write the number alone.

Query: What growth appears in the records for this molecule with OVCAR-5 ovarian? CC(=O)OCc1cc[c]([Hg][Cl])o1
Result: 43.9

Query: Lab note: need growth for C=CC[Se]C(=O)c1ccccc1OC(C)=O on OVCAR-5 ovarian, anyone have it?
Result: -32.1

Query: Record lookup: for OVCAR-5 ovarian, what growth belongs to NC(=Nc1ccccc1)N[N+](=O)[O-] ?
Result: 91.4

Query: Query for OVCAR-5 ovarian: what growth does the record show for CN1C(=O)N[C@H]2[C@@H]3NC(=O)c4ccc(Br)n4[C@@H]3C[C@]21O ?
Result: -2.49

Query: Give recorded growth with OVCAR-5 ovarian for the following molecule: c1cnc2[nH]cc(-c3csc(-c4cn(CCCCN5CCCCC5)c5ccccc45)n3)c2c1
Result: 96.3

Query: Form entry - test system: OVCAR-5 ovarian; read-out: growth; molecule: COC(=O)[C@@H](C)C[C@H](Cc1ccccc1)NC(=O)c1csc([C@@H](C[C@H](C(C)C)N(C)C(=O)[C@@H](NC(=O)C23CC(NC(C)=O)(C2)C3)C2CC2)OC(C)=O)n1
Result: 103

Query: Param readout = growth; param system = OVCAR-5 ovarian; param query = CCN(CC)CCOC(=O)C(OC(C)C)(c1ccccc1)c1ccccc1 ; response: value
Result: 92.9

Query: Given the entry COc1ccc(/C=C\c2cc(OC)c(OC)c(OC)c2)cc1OCC(=O)Nc1nc2ccc(C(F)(F)F)cc2s1 , what growth was observed with OVCAR-5 ovarian?
Result: 94.1

Query: Fill in the recorded growth for this molecule, with OVCAR-5 ovarian as test system: Cc1ccc(S(=O)(=O)C(Cl)(Cl)Cl)cc1
Result: 96.8

Query: Provide value of growth for this record tested with OVCAR-5 ovarian: CC12CC(=O)C3(SC#N)C(CCC4=CC(=O)CCC43C)C1CCC2=O (stereo not given)
Result: 103
